Tested on: Leukosis cells of P-388 mouse
protocolNotes: Antitumor Effect Test (P-388 leukemia grafted into the abdomen of mice, ratio of survival days T/C)
Assay type: in vivo
condition: Mus musculus, P388, ip, 120 h, 15 mg/kg, dosed into the abdomen successively for 5 days; P-388 in CDF1 or BDF1 mouse
measurementName: response vs control in vivo at 15 mg/kg (%)
Give your result in % as a bare value.

Recorded results for 4 compounds are shown here.
O=C(NCCCCCCNC(=O)n1cc(F)c(=O)[nH]c1=O)Nc1cccnc1 = 139
O=C(NCC[n+]1ccccc1)n1cc(F)c(=O)[nH]c1=O = 169
O=C(Nc1ccc[n+]([O-])c1)n1cc(F)c(=O)[nH]c1=O = 127
CN(C)CCCNC(=O)NCCCCCCNC(=O)n1cc(F)c(=O)[nH]c1=O = 120

Qu. Report its response vs control in vivo at 15 mg/kg with Leukosis cells of P-388 mouse as the test system: `O=C(NCCCCC[n+]1ccccc1)n1cc(F)c(=O)[nH]c1=O`
Ans. 120

The reported numbers originate from patent US4792607A.
